system: HL-60; experiment: cell viability (% survival relative to DMSO control); higher = less cytotoxic; conditions: 0.001 µM; 72 h; co-treatment: DMSO vehicle
For each record, write down the corresponding cell viability.
Answers are plain numbers, in %.

> print(dat)
                                   compound  targetundertest         measure  resultunits  obsvalue
1      Sc1ncnc2nc[nH]c12 [6-mercaptopurine]            HL-60  cell viability            %       104
2  N[C@](CCCCB(O)O)(CCN1CCCCC1)C(=O)O [Arginase inhibitor 1]            HL-60  cell viability            %       102
3  CC(/C=C1\SC(=S)N(CC(=O)O)C1=O)=C\c1ccccc1 [Epalrestat]            HL-60  cell viability            %       100

Now consider the entry below.
Need cell viability, item C[C@]12O[C@H](C[C@]1(O)CO)n1c3ccccc3c3c4c(c5c6ccccc6n2c5c31)CNC4=O [Lestaurtinib]
98.1

###

system: HL-60; test: cell viability (% survival relative to DMSO control); higher = less cytotoxic; details: 0.01 µM; 72 h; co-treatment: pictilisib 100 nM
For each record, write down the corresponding cell viability.
One number for each entry, in %.

These recorded examples may help you get a feel for the data.
molecule	cell viability (%)
Cc1c(-c2ccccc2)oc2c(C(=O)OCCN3CCCCC3)cccc2c1=O.Cl [Flavoxate]	105
CC(Cc1ccc(O)c(O)c1)C(C)Cc1ccc(O)c(O)c1 (configuration not stated) [Masoprocol]	89.6
CN(C)c1nc(O)c2[nH]cnc2n1 [2-Dimethylamino-6-hydroxypurine]	105
C1CCC(C(CC2CCCCN2)C2CCCCC2)CC1.O=C(O)/C=C\C(=O)O (configuration not stated) [Perhexiline]	98.9
O=C1Oc2ccccc2C(=O)C1CC1C(=O)Oc2ccccc2C1=O (configuration not stated) [Dicumarol]	91

Go through the items and report each one's cell viability.
1. C[C@H]1O[C@@H](O[C@H]2[C@@H](O)C[C@H](O[C@H]3[C@@H](O)C[C@H](O[C@H]4CC[C@@]5(C)[C@H](CC[C@@H]6[C@@H]5C[C@@H](O)[C@]5(C)[C@@H](C7=CC(=O)OC7)CC[C@]65O)C4)O[C@@H]3C)O[C@@H]2C)C[C@H](O)[C@@H]1O [Digoxin]
2. O=C(O)C(Cl)Cl [Dichloroacetate]

1. 89.6
2. 100

###

For each record, write down the corresponding cell viability.
test system: MV4-11; experiment: cell viability (% survival relative to DMSO control, bortezomib = 0%); higher = less cytotoxic; conditions: 1 nM; 72 h

> print(dat)
                                   compound         measure  obsvalue
1  Nc1ncnc2c1ncn2[C@@H]1O[C@H](CSCC[C@H](N)C(=O)O)[C@@H](O)[C@H]1O [S-Adenosyl Homocysteine]  cell viability      110%
2  O=C(O)CCc1ccc(NCc2cccc(Oc3ccccc3)c2)cc1 [GW9508]  cell viability     98.2%

Go through the items and report each one's cell viability.
1. C1CCc2nnc(C34CC5CC(CC(C5)C3)C4)n2CC1 [MERCK-544]
2. O=C(c1ccc(OCCN2CCCCC2)cc1)c1c(-c2ccc(O)cc2)sc2cc(O)ccc12 [Raloxifene]
3. O=C(O)C(Cl)Cl [Dichloroacetate]
4. O=C(O)c1cc2sccc2[nH]1 [4H-thieno[3,2-b]pyrrole-5-carboxylic acid]
5. Cl.OC[C@H]1NC[C@@H](O)[C@@H](O)[C@@H]1O [1-Deoxymannojirimycin hydrochloride]
6. Clc1ccc(COC(Cn2ccnc2)c2ccc(Cl)cc2Cl)cc1 (stereo not drawn) [Econazole]

1. 97.8%
2. 93.9%
3. 99.6%
4. 107%
5. 102%
6. 103%
